Values from patent US20080132509A1

target: human capsaicin receptor (Homo sapiens, UniProt Q8NER1); test: Calcium mobilization assay, determination of agonist activity; conditions: cells expressing human capsaicin receptor, no capsaicin added, FLUO-3 fluorescence
Sequence (Q8NER1 whole entry): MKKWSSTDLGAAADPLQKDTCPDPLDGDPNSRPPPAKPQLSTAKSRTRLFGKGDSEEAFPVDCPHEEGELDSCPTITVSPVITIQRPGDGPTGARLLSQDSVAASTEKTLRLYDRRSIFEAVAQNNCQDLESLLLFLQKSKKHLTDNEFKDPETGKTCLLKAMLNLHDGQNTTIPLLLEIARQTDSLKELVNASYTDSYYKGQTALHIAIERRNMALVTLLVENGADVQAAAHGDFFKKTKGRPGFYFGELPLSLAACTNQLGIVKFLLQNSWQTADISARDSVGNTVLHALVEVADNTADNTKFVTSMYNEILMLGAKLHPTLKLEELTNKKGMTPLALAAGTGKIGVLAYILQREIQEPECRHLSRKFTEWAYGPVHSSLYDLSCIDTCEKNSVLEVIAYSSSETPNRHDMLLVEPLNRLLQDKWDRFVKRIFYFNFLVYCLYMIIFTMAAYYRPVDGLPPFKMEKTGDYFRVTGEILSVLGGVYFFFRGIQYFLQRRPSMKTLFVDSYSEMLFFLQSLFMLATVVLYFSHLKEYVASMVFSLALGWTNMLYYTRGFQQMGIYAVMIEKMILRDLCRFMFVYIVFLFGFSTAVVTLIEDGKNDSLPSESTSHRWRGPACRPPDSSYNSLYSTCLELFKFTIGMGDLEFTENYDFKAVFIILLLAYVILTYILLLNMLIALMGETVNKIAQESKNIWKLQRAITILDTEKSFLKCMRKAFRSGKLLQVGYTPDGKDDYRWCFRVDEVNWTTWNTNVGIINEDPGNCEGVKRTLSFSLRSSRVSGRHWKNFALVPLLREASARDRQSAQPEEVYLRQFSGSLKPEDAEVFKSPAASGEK
pEC50: −log10 of the molar value.
parameter: pEC50

Worked set:
The recorded pEC50 for entry CC1CCCN1c1nc(-c2ccc(F)cc2)cc(-c2ccc(N3CCC(CO)CC3)nc2)n1 (stereo not drawn) equals > 6.00

The recorded pEC50 for entry CC1CCCN1c1nc(-c2ccc(F)cc2)cc(-c2ccc(N3CCC(O)CC3)nc2)n1 (stereo not drawn) equals > 6.00

Below: the item to evaluate.
The recorded pEC50 for entry CC1CCCN1c1nc(-c2ccc(F)cc2)cc(-c2ccc(N3CCC(C(N)=O)CC3)nc2)n1 (stereo not drawn) equals > 6.00
